Item-by-item account of ΔTm
# Test system: AT rich DNA
Endpoint label: ΔTm (°C)

>>> print(df.to_string())
                                    molecule  endpoint_label  result_modifier  reported_value
 0  N=C(N)c1ccc(-c2ccc(-c3nc4cc(C(=N)N)ccc4[nH]3)o2)cc1             ΔTm                =              25
 1  N=C(N)c1ccc(-c2ccc(-c3cc4ccc(C(=N)N)cc4[nH]3)s2)cc1             ΔTm                >              30
 2  N=C(N)c1ccc(-c2ccc(-c3cc4ccc(C(=N)N)cc4[nH]3)s2)nc1             ΔTm                =              29
 3  COc1cc(C(=N)N)ccc1-c1ccc(-c2cc3ccc(C(=N)N)cc3[nH]2)o1             ΔTm                =              27
 4  N=C(N)c1ccc(-c2ccc(-c3ccc(C(=N)N)cc3)o2)cc1 [FURAMIDINE]             ΔTm                =              25
 5  N=C(N)c1ccc(-c2ccc(-c3nc4ccc(C(=N)N)cc4[nH]3)s2)cc1             ΔTm                >              30
 6  N=C(N)c1ccc(-c2ccc(-c3cc4cc(C(=N)N)ccc4[nH]3)s2)cc1             ΔTm                =              29
 7  Cc1cc(C(=N)N)ccc1-c1ccc(-c2cc3ccc(C(=N)N)cc3[nH]2)o1             ΔTm                >              30
 8  N=C(N)c1ccc(-c2ccc(-c3cc4ccc(C(=N)N)cc4[nH]3)o2)cc1             ΔTm                >              30
 9  N=C(N)c1ccc(-c2ccc(-c3cc4cc(C(=N)N)ccc4[nH]3)o2)nc1             ΔTm                =              27
10  N=C(N)c1ccc(-c2ccc(-c3cc4ccc(C(=N)N)cc4[nH]3)o2)nc1             ΔTm                =              28
11  N=C(N)c1ccc(-c2ccc(-c3cc4cc(C(=N)N)ccc4[nH]3)o2)cc1             ΔTm                =              29
12  N=C(N)c1ccc2cc(-c3ccc(-c4ccc(C(=N)N)nc4)o3)[nH]c2c1             ΔTm                =              28
13  N=C(N)c1ccc(-c2ccc(-c3cc4cc(C(=N)N)ccc4[nH]3)[se]2)cc1             ΔTm                >              30

====

# Protocol summary: Cytotoxicity against rat L6 cells assessed as reduction in cell viability incubated for 70 hrs by Alamar blue based microplate fluorescence assay
# Assay type: toxicity
Endpoint label: IC50 at 70 h (µM)

>>> print(df.to_string())
                                entry_smiles  endpoint_label  reported_value
 0  N=C(N)c1ccc(-c2ccc(-c3cc4ccc(C(=N)N)cc4[nH]3)o2)cc1    IC50 at 70 h            12.9
 1  N=C(N)c1ccc2cc(-c3ccc(-c4ccc(C(=N)N)nc4)o3)[nH]c2c1    IC50 at 70 h            14.2
 2  N=C(N)c1ccc(-c2ccc(-c3cc4cc(C(=N)N)ccc4[nH]3)s2)cc1    IC50 at 70 h              17
 3  N=C(N)c1ccc(-c2ccc(-c3cc4ccc(C(=N)N)cc4[nH]3)o2)nc1    IC50 at 70 h            34.8
 4  N=C(N)c1ccc(-c2ccc(-c3nc4cc(C(=N)N)ccc4[nH]3)o2)cc1    IC50 at 70 h            10.1
 5  N=C(N)c1ccc(-c2ccc(-c3cc4cc(C(=N)N)ccc4[nH]3)o2)nc1    IC50 at 70 h            50.4
 6  Cc1cc(C(=N)N)ccc1-c1ccc(-c2cc3ccc(C(=N)N)cc3[nH]2)o1    IC50 at 70 h             5.1
 7  N=C(N)c1ccc(-c2ccc(-c3cc4ccc(C(=N)N)cc4[nH]3)s2)nc1    IC50 at 70 h            14.5
 8  N=C(N)c1ccc(-c2ccc(-c3cc4cc(C(=N)N)ccc4[nH]3)o2)cc1    IC50 at 70 h            14.2
 9  N=C(N)c1ccc(-c2ccc(-c3cc4cc(C(=N)N)ccc4[nH]3)[se]2)cc1    IC50 at 70 h            21.5
10  COc1cc(C(=N)N)ccc1-c1ccc(-c2cc3ccc(C(=N)N)cc3[nH]2)o1    IC50 at 70 h              11
11  N=C(N)c1ccc(-c2ccc(-c3nc4ccc(C(=N)N)cc4[nH]3)s2)cc1    IC50 at 70 h            22.4
12  N=C(N)c1ccc(-c2ccc(-c3cc4ccc(C(=N)N)cc4[nH]3)s2)cc1    IC50 at 70 h            12.4
